# target.entity: T1, hCol2 (human Type II collagen) (Homo sapiens, UniProt P02458)
# T1 construct: purchased Chondrex
# experiment.summary: Binding analysis by SPR (Biacore 3000) vs human type II collagen
# test.conditions: dimers or tetramers; Langmuir 1:1 model
parameter.measured: Affinity [SPR] vs hCol2 (nM)
Enter your answer as a number in nM; do not include the unit.

Requested read-out: Affinity [SPR] vs hCol2. Entry: CID 212000: dimer of SEQ ID NO: 2 (dimer with linker between the monomers) (protein, Col2 binding protein (dimer of 211261) (CID212000)) IAAKFDEAQSAADSEILHLPNLTEQQRHYFRRWLSDDPSVSTHILTQAQHLNDDQAPKGGGGSGGGGSGGGGSGGGGSIAAKFDEAQSAADSEILHLPNLTEQQRHYFRRWLSDDPSVSTHILTQAQHLNDDQAPKSAWSHPQFEK
180
